Test system: VZV strain Ellen
Experiment summary: VZV antiviral (ELISA) assay
Format: cell-based
Condition label: Human alphaherpesvirus 3, HFF, read-out: IC50 (ug/ml) VZV, VZV strain Ellen, HFF cells, ELISA
The entries below come with measured IC50 values attached.

{"columns": ["Smiles", "IC50"],
 "data": [
  ["Cc1ccc([C@H](C)NC(=S)Nc2ccc(NC(=O)c3ccccc3F)cc2)cc1", "0.55 µg/mL"]
]}

Data request: Provide the documented IC50 with VZV strain Ellen as the system for `CN(C)c1ccc(CNC(=S)Nc2ccc(NC(=O)c3ccccc3F)cc2)cc1C(F)(F)F`
Data returned: > 10 µg/mL

Data request: Provide the documented IC50 with VZV strain Ellen as the system for `CCCCN(C)c1cc(NC(=S)Nc2ccc(NC(=O)c3ccccc3F)cc2)cc(C(F)(F)F)c1`
Data returned: > 10 µg/mL

Data request: Provide the documented IC50 with VZV strain Ellen as the system for `CC(C)Oc1ccc(NC(=S)Nc2ccc(NC(=O)c3ccccc3F)cc2)cc1Cl`
Data returned: > 7.5 µg/mL
